Each recorded value in this set is attributed to ChEMBL document CHEMBL1287741.

Test system: NCI/ADR-RES
Experiment Notes: Growth inhibition of human NCI-ADR-RES cells after 48 hrs by sulforhodamine B assay
Type: functional
Provide the recorded GI50 for the entries that follow.
The reply should contain only the number, in µg/mL.

Task item: Endpoint output: GI50 of "CC1(C)CCC[C@]2(C)[C@H]3Cc4oc(CN5CCCC5)cc4[C@H]4C(=O)O[C@@H]([C@H](O)[C@@H]12)[C@@H]43" . Value?
Reply: 2.5

Task item: Any idea what its GI50 is? The compound is "CC1(C)CCC[C@]2(C)[C@H]3Cc4oc(CN5CCCCC5)cc4[C@H]4C(=O)O[C@@H]([C@H](O)[C@@H]12)[C@@H]43"
Reply: 2.65

Task item: So what's the measured GI50 for this one? "CC1(C)CCC[C@]2(C)[C@H]3Cc4oc(CN5CCOCC5)cc4[C@H]4C(=O)O[C@@H]([C@H](O)[C@@H]12)[C@@H]43"
Reply: 2.73

====

System: K562
Experiment Notes: Growth inhibition of human K562 cells after 48 hrs by sulforhodamine B assay
Assay type: functional
Stated Conditions: K562, 48 h
Can you tell me TGI for the items I'm about to list?
Express the result in µg/mL but write the number alone.

Task item: // query TGI value for entry "CC1(C)CCC[C@]2(C)[C@H]3Cc4oc(CN5CCCCC5)cc4[C@H]4C(=O)O[C@@H]([C@H](O)[C@@H]12)[C@@H]43"
Reply: 4.55

Task item: State the recorded TGI for this entry: "CC(C)CN(Cc1cc2c(o1)C[C@H]1[C@H]3[C@@H](OC(=O)[C@H]23)[C@H](O)[C@H]2C(C)(C)CCC[C@]12C)CC(C)C"
Reply: 86.1

Task item: Item "CC1(C)CCC[C@]2(C)[C@H]3Cc4oc(CN5CCCC5)cc4[C@H]4C(=O)O[C@@H]([C@H](O)[C@@H]12)[C@@H]43" has what recorded TGI?
Reply: 23.2

Task item: Please give the measured TGI for this compound: COc1cccc2c1C(=O)c1c(O)c3c(c(O)c1C2=O)C[C@@](O)(C(=O)CO)C[C@@H]3O[C@H]1C[C@H](N)[C@H](O)[C@H](C)O1 [DOXORUBICIN]
Reply: 20.5

Task item: Dear colleague, I am looking for the recorded TGI of the following compound: "CCCN(CCC)Cc1cc2c(o1)C[C@H]1[C@H]3[C@@H](OC(=O)[C@H]23)[C@H](O)[C@H]2C(C)(C)CCC[C@]12C"
Reply: 8.87

Task item: Any idea what its TGI is? The compound is "CCN(CC)Cc1cc2c(o1)C[C@H]1[C@H]3[C@@H](OC(=O)[C@H]23)[C@H](O)[C@H]2C(C)(C)CCC[C@]12C"
Reply: 3.01

Task item: Using the record for "CC1(C)CCC[C@]2(C)[C@H]3Cc4oc(CN5CCOCC5)cc4[C@H]4C(=O)O[C@@H]([C@H](O)[C@@H]12)[C@@H]43" , report its TGI.
Reply: 8.24

====

Test system: MCF7
Experiment Notes: Growth inhibition of human MCF7 cells after 48 hrs by sulforhodamine B assay
Type: functional
Stated Conditions: MCF7, 48 h
Assign GI50 to each entry below.
Give the value, in units of µg/mL, as a plain number.

Task item: Record request: GI50 value, item "CC1(C)CCC[C@]2(C)[C@H]3Cc4oc(CN5CCCCC5)cc4[C@H]4C(=O)O[C@@H]([C@H](O)[C@@H]12)[C@@H]43"
Reply: 0.88

Task item: Would you mind telling me what GI50 value was observed for "CCN(CC)Cc1cc2c(o1)C[C@H]1[C@H]3[C@@H](OC(=O)[C@H]23)[C@H](O)[C@H]2C(C)(C)CCC[C@]12C" ?
Reply: 0.27

Task item: Which measured GI50 value corresponds to "CCCN(CCC)Cc1cc2c(o1)C[C@H]1[C@H]3[C@@H](OC(=O)[C@H]23)[C@H](O)[C@H]2C(C)(C)CCC[C@]12C" ?
Reply: 2.5

Task item: Any idea what its GI50 is? The molecule is "CC(C)CN(Cc1cc2c(o1)C[C@H]1[C@H]3[C@@H](OC(=O)[C@H]23)[C@H](O)[C@H]2C(C)(C)CCC[C@]12C)CC(C)C"
Reply: 0.69

Task item: For the molecule shown here, "CC1(C)CCC[C@]2(C)[C@H]3Cc4oc(CN5CCCC5)cc4[C@H]4C(=O)O[C@@H]([C@H](O)[C@@H]12)[C@@H]43" , give the reported GI50.
Reply: 1.81

Task item: # get_value(readout='GI50', item= COc1cccc2c1C(=O)c1c(O)c3c(c(O)c1C2=O)C[C@@](O)(C(=O)CO)C[C@@H]3O[C@H]1C[C@H](N)[C@H](O)[C@H](C)O1 [DOXORUBICIN] )
Reply: 0.03

Task item: Need GI50, item "CC1(C)CCC[C@]2(C)[C@H]3Cc4oc(CN5CCOCC5)cc4[C@H]4C(=O)O[C@@H]([C@H](O)[C@@H]12)[C@@H]43"
Reply: 2.45

Task item: What value of GI50 has been reported for the following molecule? CC1(C)CCC[C@@]2(C)C1[C@@H](O)[C@@H]1OC(=O)[C@@H]3c4ccoc4C[C@H]2[C@@H]13 (stereo partly drawn)
Reply: 27.7

====

Test system: UACC-62
Experiment Notes: Growth inhibition of human UACC62 cells after 48 hrs by sulforhodamine B assay
Assay type: functional
Stated Conditions: UACC-62, 48 h
Give TGI for every item shown.
Please reply with the bare figure in µg/mL and do not write the unit itself.

Task item: So what does the record say about TGI for "CCCN(CCC)Cc1cc2c(o1)C[C@H]1[C@H]3[C@@H](OC(=O)[C@H]23)[C@H](O)[C@H]2C(C)(C)CCC[C@]12C" ?
Reply: 4.96

Task item: Would you kindly share the measured TGI for "CC1(C)CCC[C@]2(C)[C@H]3Cc4oc(CN5CCCC5)cc4[C@H]4C(=O)O[C@@H]([C@H](O)[C@@H]12)[C@@H]43" ?
Reply: 3.05

Task item: Would you kindly share the measured TGI for CC1(C)CCC[C@@]2(C)C1[C@@H](O)[C@@H]1OC(=O)[C@@H]3c4ccoc4C[C@H]2[C@@H]13 (stereo partly drawn) ?
Reply: 30

====

Tested on: UACC-62
Experiment Notes: Growth inhibition of human UACC62 cells after 48 hrs by sulforhodamine B assay
Type: functional
Stated Conditions: UACC-62, 48 h
Decide using TGI: a value greater than or equal to 3 µg/mL is MET, a smaller one is NOT MET.

Task item: Please indicate if the recorded TGI for "CC1(C)CCC[C@]2(C)[C@H]3Cc4oc(CN5CCCCC5)cc4[C@H]4C(=O)O[C@@H]([C@H](O)[C@@H]12)[C@@H]43" meets or exceeds 3 µg/mL.
Reply: MET

Task item: Check if TGI >= 3 µg/mL (inclusive). Item: "COc1cccc2c1C(=O)c1c(O)c3c(c(O)c1C2=O)C[C@@](O)(C(=O)CO)C[C@@H]3O[C@H]1C[C@H](N)[C@H](O)[C@H](C)O1"
Reply: NOT MET

Task item: // inclusive: TGI at least 3 µg/mL? input: "CCN(CC)Cc1cc2c(o1)C[C@H]1[C@H]3[C@@H](OC(=O)[C@H]23)[C@H](O)[C@H]2C(C)(C)CCC[C@]12C"
Reply: NOT MET

Task item: Dear colleague, could you confirm whether "CC1(C)CCC[C@]2(C)[C@H]3Cc4oc(CN5CCOCC5)cc4[C@H]4C(=O)O[C@@H]([C@H](O)[C@@H]12)[C@@H]43" has TGI at or above 3 µg/mL?
Reply: MET

Task item: I'd appreciate it if you could say whether "CC(C)CN(Cc1cc2c(o1)C[C@H]1[C@H]3[C@@H](OC(=O)[C@H]23)[C@H](O)[C@H]2C(C)(C)CCC[C@]12C)CC(C)C" has TGI at least equal to 3 µg/mL.
Reply: MET

====

Tested on: NCI/ADR-RES
Experiment Notes: Growth inhibition of human NCI-ADR-RES cells after 48 hrs by sulforhodamine B assay
Assay type: functional
Measured Quantity: GI50 (µg/mL)
The reply should contain only the number, in µg/mL.

Task item: Reported GI50, molecule "COc1cccc2c1C(=O)c1c(O)c3c(c(O)c1C2=O)C[C@@](O)(C(=O)CO)C[C@@H]3O[C@H]1C[C@H](N)[C@H](O)[C@H](C)O1" : ____
Reply: 0.33

Task item: For the molecule shown here, "CCCN(CCC)Cc1cc2c(o1)C[C@H]1[C@H]3[C@@H](OC(=O)[C@H]23)[C@H](O)[C@H]2C(C)(C)CCC[C@]12C" , give the reported GI50.
Reply: 2.64

Task item: Bench note: what GI50 did CC1(C)CCC[C@@]2(C)C1[C@@H](O)[C@@H]1OC(=O)[C@@H]3c4ccoc4C[C@H]2[C@@H]13 (stereo not given in full) show?
Reply: 0.35

Task item: I have this molecule here, "CC(C)CN(Cc1cc2c(o1)C[C@H]1[C@H]3[C@@H](OC(=O)[C@H]23)[C@H](O)[C@H]2C(C)(C)CCC[C@]12C)CC(C)C" , and I need its recorded GI50.
Reply: 0.39

Task item: Which measured GI50 value corresponds to "CCN(CC)Cc1cc2c(o1)C[C@H]1[C@H]3[C@@H](OC(=O)[C@H]23)[C@H](O)[C@H]2C(C)(C)CCC[C@]12C" ?
Reply: 3.12
